All figures here come from patent US7767659B2.

System: IGROV-1
assay-procedure: Inhibition of cells growth by colorimetric assay (SRB)
condition-details: Homo sapiens, IGROV-1, 48 h, read-out: IGROV GI50
Binary call on GI50 with cut-off 30 nM: strictly below means Condition met, and equality or higher means Condition not met.

Request: Strictly below 30 nM in GI50? COc1cc2c(cc1O)CCN[C@]21CS[C@@H]2c3c(OC(C)=O)c(C)c4c(c3[C@H](COC1=O)N1C[C@@H]3Cc5cc(C)c(OC)c(O)c5C(C21)N3C)OCO4 (stereo partly drawn) [Et-745]
Result: Condition not met

Request: Strictly below 30 nM in GI50? COc1c(C)cc2c(c1O)[C@H]1N[C@@H](C2)[C@H](C#N)N2C1[C@@H]1SC[C@]3(NCCc4c3[nH]c3ccc(O)cc43)C(=O)OC[C@H]2c2c3c(c(C)c(OC(C)=O)c21)OCO3 (stereo partly drawn) [compound 61]
Result: Condition met

Request: Strictly below 30 nM in GI50? COC1=C(C)C(=O)C2=C(C1=O)C1C3[C@@H]4SCC(=O)C(=O)OC[C@@H](c5c6c(c(C)c(OC(C)=O)c54)OCO6)N3[C@@H](O)[C@H](C2)N1C (stereo partly drawn) [Et-594-quinone]
Result: Condition not met

Request: Strictly below 30 nM in GI50? C=CCN1[C@@H]2c3c(cc(C)c(OC)c3O)C[C@H]1[C@H](C#N)N1C2[C@@H]2SC[C@]3(NCCc4cc(O)c(OC)cc43)C(=O)OC[C@H]1c1c3c(c(C)c(OC(=O)/C=C/c4ccccc4)c12)OCO3 (stereo partly drawn) [compound 49]
Result: Condition not met

Request: Strictly below 30 nM in GI50? C=CCN1[C@@H]2c3c(cc(C)c(OC)c3O)C[C@H]1[C@H](C#N)N1C2[C@@H]2SC[C@]3(NCCc4c3[nH]c3ccc(OC)cc43)C(=O)OC[C@H]1c1c3c(c(C)c(OC(C)=O)c12)OCO3 (stereo partly drawn) [compound 56]
Result: Condition not met

Request: Strictly below 30 nM in GI50? C=CCN1[C@@H]2c3c(cc(C)c(OC)c3OC(=O)OC(C)(C)C)C[C@H]1[C@H](C#N)N1C2[C@@H]2SC[C@]3(NCCc4cc(OC(=O)OC(C)(C)C)c(OC)cc43)C(=O)OC[C@H]1c1c3c(c(C)c(OC(C)=O)c12)OCO3 (stereo partly drawn) [compound 45]
Result: Condition not met

Request: Strictly below 30 nM in GI50? CCCCCCCC(=O)Oc1c(C)c2c(c3c1[C@H]1SC[C@]4(NCCc5cc(O)c(OC)cc54)C(=O)OC[C@@H]3N3C1[C@@H]1N[C@@H](Cc4cc(C)c(OC)c(O)c41)[C@@H]3O)OCO2 (stereo partly drawn) [compound 54]
Result: Condition met

Request: Strictly below 30 nM in GI50? C=CCN1[C@@H]2c3c(cc(C)c(OC)c3O)C[C@H]1[C@H](C#N)N1C2[C@@H]2SC[C@]3(NCCc4cc(OC(=O)OC(C)(C)C)c(OC)cc43)C(=O)OC[C@H]1c1c3c(c(C)c(OC(C)=O)c12)OCO3 (stereo partly drawn) [compound 44]
Result: Condition not met

Request: Strictly below 30 nM in GI50? CCCCCCCCCCCCCCCC(=O)NC1CS[C@@H]2c3c(OC(C)=O)c(C)c4c(c3[C@H](COC1=O)N1C2[C@@H]2N[C@@H](Cc3cc(C)c(OC)c(O)c32)[C@@H]1O)OCO4 (stereo partly drawn) [compound 38]
Result: Condition not met
